Molecular target: 3',5'-cyclic-AMP phosphodiesterase 4B (Homo sapiens, UniProt Q07343)
Sequence (Q07343 whole entry): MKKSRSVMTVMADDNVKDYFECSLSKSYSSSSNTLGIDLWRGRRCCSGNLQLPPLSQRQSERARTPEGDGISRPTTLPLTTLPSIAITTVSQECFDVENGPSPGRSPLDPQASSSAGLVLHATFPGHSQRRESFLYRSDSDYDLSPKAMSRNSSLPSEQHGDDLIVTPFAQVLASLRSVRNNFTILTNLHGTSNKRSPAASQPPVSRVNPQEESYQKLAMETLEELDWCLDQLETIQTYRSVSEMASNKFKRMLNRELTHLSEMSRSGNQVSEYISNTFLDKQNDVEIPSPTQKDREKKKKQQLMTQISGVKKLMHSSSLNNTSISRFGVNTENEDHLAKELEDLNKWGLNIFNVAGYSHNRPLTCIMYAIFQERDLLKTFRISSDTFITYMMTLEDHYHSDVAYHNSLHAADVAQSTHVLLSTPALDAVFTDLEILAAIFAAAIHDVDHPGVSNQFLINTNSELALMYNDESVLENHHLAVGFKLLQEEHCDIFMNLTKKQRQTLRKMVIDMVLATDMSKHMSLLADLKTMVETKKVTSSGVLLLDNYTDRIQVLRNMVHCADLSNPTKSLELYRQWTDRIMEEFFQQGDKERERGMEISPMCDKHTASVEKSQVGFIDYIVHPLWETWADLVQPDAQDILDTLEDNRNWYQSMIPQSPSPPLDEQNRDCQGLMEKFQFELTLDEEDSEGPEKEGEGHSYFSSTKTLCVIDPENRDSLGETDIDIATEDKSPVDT
recorded.endpoint: IC50 (nM)
Dear colleague, please return just the value in nM, with no unit written.

Reported IC50 (3',5'-cyclic-AMP phosphodiesterase 4B (Homo sapiens, UniProt Q07343)) for entry CCC(CC)c1nn(CCO)c2c1N=C(c1ccc(-n3ccnc3C)cc1)CNC2=O is 583

----------
Experiment: Half life in iv dosed rat
Format: ADME, organism-based
Conditions: in vivo
recorded.endpoint: half-life (h)
Field format: number, assumed h, no unit text.

Entry CCC(CC)c1nn(CC)c2c1N=C(c1ccc(C(=O)O)cc1)CNC2=O ; half-life = 1.9
